// data source = the antibiotic and cytotoxicity screens of Wong et al. (2023)

Tested on: HepG2
assayNotes: cytotoxicity call (relative viability < 0.9)
experimentalConditions: 10 µM
The whole screen tested about 39,000 compounds, of which about 3,300 (8.5%) were called active. The sample holds actives, similar compounds and a random draw of the others, so the mix is not that of the screen.
Returns: one label drawn from active, inactive

Ask: Tell me the recorded outcome of this test for C[C@H](CO)N1C[C@H](C)[C@H](CN(C)Cc2ccc(C(=O)Nc3ccccc3N)cc2)Oc2ccc(NC(=O)Nc3ccc4c(c3)OCO4)cc2CC1=O .
Result: inactive

Ask: Tell me the recorded outcome of this test for C[C@H]1CN([C@@H](C)CO)C(=O)Cc2cc(NC(=O)Nc3ccc4c(c3)OCO4)ccc2O[C@@H]1CN(C)Cc1ccc(C(=O)Nc2ccccc2N)cc1 .
Result: inactive

Ask: Tell me the recorded outcome of this test for C[C@@H]1CN([C@@H](C)CO)C(=O)Cc2cc(NC(=O)Nc3ccc4c(c3)OCO4)ccc2O[C@H]1CN(C)Cc1ccc(C(=O)Nc2ccccc2N)cc1 .
Result: inactive

Ask: Tell me the recorded outcome of this test for C[C@H]1CN([C@@H](C)CO)C(=O)Cc2cc(NC(=O)Nc3ccccc3)ccc2O[C@@H]1CN(C)Cc1ccc(C(=O)Nc2ccccc2N)cc1 .
Result: inactive

Ask: Tell me the recorded outcome of this test for C[C@@H]1CN([C@H](C)CO)C(=O)Cc2cc(NC(=O)Nc3ccc4c(c3)OCO4)ccc2O[C@@H]1CN(C)Cc1ccc(C(=O)Nc2ccccc2N)cc1 .
Result: active

Ask: Tell me the recorded outcome of this test for C[C@@H]1CN([C@@H](C)CO)C(=O)Cc2cc(NC(=O)Nc3ccc4c(c3)OCO4)ccc2O[C@@H]1CN(C)Cc1ccc(C(=O)Nc2ccccc2N)cc1 .
Result: active

----------
Test system: HepG2
assayNotes: cytotoxicity call (relative viability < 0.9)
experimentalConditions: 10 µM
Screen size: about 39,000 compounds; about 3,300 (8.5%) were called active. The entries come from a sample that favours actives as a whole.
Returns: one label drawn from active, inactive

Ask: Tell me the recorded outcome of this test for C[C@@H]1CN([C@@H](C)CO)C(=O)c2cc(NC(=O)Nc3ccccc3)ccc2O[C@@H]1CN(C)Cc1ccc(C(F)(F)F)cc1 .
Result: active

Ask: Tell me the recorded outcome of this test for C[C@H]1CN([C@@H](C)CO)C(=O)c2cc(NC(=O)Nc3ccccc3)ccc2O[C@@H]1CN(C)Cc1ccc(C(F)(F)F)cc1 .
Result: active

Ask: Tell me the recorded outcome of this test for C[C@H](CO)N1C[C@H](C)[C@H](CN(C)C)Oc2ccc(NS(=O)(=O)c3cn(C)cn3)cc2CC1=O .
Result: inactive

Ask: Tell me the recorded outcome of this test for C[C@H](CO)N1C[C@H](C)[C@H](CN(C)Cc2ccc(-c3ccccc3)cc2)Oc2ccc(NS(=O)(=O)c3ccc(Cl)cc3)cc2C1=O .
Result: active

Ask: Tell me the recorded outcome of this test for COc1ccc(CC[C@@H](OC(=O)[C@H]2CCCCN2C(=O)Cc2ccccc2)c2cccc(OCC(=O)O)c2)cc1OC .
Result: active

Ask: Tell me the recorded outcome of this test for CCCN(C)C[C@@H]1OCCCC[C@@H](C)Oc2ccc(NC(=O)CCC(F)(F)F)cc2C(=O)N([C@H](C)CO)C[C@@H]1C .
Result: inactive

Ask: Tell me the recorded outcome of this test for C[C@@H]1CN([C@H](C)CO)C(=O)c2cc(NC(=O)Nc3ccccc3)ccc2O[C@@H]1CN(C)Cc1ccc(Oc2ccccc2)cc1 .
Result: active

Ask: Tell me the recorded outcome of this test for C[C@H]1CN([C@@H](C)CO)C(=O)c2cc(NS(=O)(=O)c3ccc(Cl)cc3)ccc2O[C@H]1CN(C)Cc1ccc(-c2ccccc2)cc1 .
Result: inactive

Ask: Tell me the recorded outcome of this test for OCc1ccc(O[C@@H]2O[C@H](CO)[C@@H](O)[C@H](O)[C@H]2O)cc1 .
Result: inactive

Ask: Tell me the recorded outcome of this test for C[C@H]1CN([C@@H](C)CO)C(=O)c2cc(C#Cc3ccncc3)cnc2O[C@H]1CN(C)C(=O)c1ccccc1F .
Result: inactive

Ask: Tell me the recorded outcome of this test for O=C(O)c1cc(O[C@@H]2O[C@H](CO)[C@@H](O)[C@H](O)[C@H]2O)c2ccccc2c1O .
Result: inactive

Ask: Tell me the recorded outcome of this test for Cc1n[nH]c(NCc2ccco2)nc1=O .
Result: inactive

Ask: Tell me the recorded outcome of this test for N#C[C@@H]1C(=O)NC(=O)[C@@H](C#N)C12CCCC2 .
Result: inactive

Ask: Tell me the recorded outcome of this test for C[C@H]1CN([C@@H](C)CO)C(=O)c2cc(NC(=O)Nc3ccccc3)ccc2O[C@H]1CN(C)Cc1ccc(C(F)(F)F)cc1 .
Result: inactive

Ask: Tell me the recorded outcome of this test for C[C@@H]1CN([C@H](C)CO)C(=O)c2cc(NS(=O)(=O)c3ccc(Cl)cc3)ccc2O[C@@H]1CN(C)Cc1ccc(-c2ccccc2)cc1 .
Result: active

Ask: Tell me the recorded outcome of this test for C=CC1=C(C)C2=NC/1=C\C1=NC(=C\C3=NC(=C\C4=NC(=C\2)/C(C)=C4CCC(=O)O)/C(CCC(=O)O)=C3C)/C(C=C)=C1C .
Result: inactive

Ask: Tell me the recorded outcome of this test for C[C@H](CO)N1C[C@H](C)[C@H](CN(C)Cc2ccc(C(=O)O)cc2)Oc2ccc(NC(=O)Nc3ccc(C(F)(F)F)cc3)cc2C1=O .
Result: inactive

Ask: Tell me the recorded outcome of this test for CC[C@H](C(=O)N1CCCC[C@H]1C(=O)O[C@H](CCc1ccc(OC)c(OC)c1)c1cccc(OCC(=O)NCCNC(=O)COc2cccc([C@@H](CCc3ccc(OC)c(OC)c3)OC(=O)[C@@H]3CCCCN3C(=O)[C@@H](CC)c3cc(OC)c(OC)c(OC)c3)c2)c1)c1cc(OC)c(OC)c(OC)c1 .
Result: inactive

Ask: Tell me the recorded outcome of this test for CCc1c(c/2[nH]c1/C=C/1\N=C(/C(=C/3\N=C(/C=C/4\N/C(=C2)C(=C4C)C=C)[C@@H](C)[C@@H]3CCC(=O)O)CC(=O)N[C@@H](CC(=O)O)C(=O)O)C(=C1C)C(=O)O)C .
Result: inactive

Ask: Tell me the recorded outcome of this test for C[C@H](CO)N1C[C@H](C)[C@H](CN(C)Cc2ccc(C(F)(F)F)cc2)Oc2ccc(NC(=O)Nc3ccccc3)cc2C1=O .
Result: active

Ask: Tell me the recorded outcome of this test for O=C1c2c(O)cccc2C(C2OC(CO)C(O)C(O)C2O)c2cc(CO)cc(O)c21 (stereo not drawn) .
Result: active

Ask: Tell me the recorded outcome of this test for C[C@@H]1CN([C@H](C)CO)C(=O)c2cc(NC(=O)Nc3ccccc3)ccc2O[C@H]1CN(C)Cc1ccc(Oc2ccccc2)cc1 .
Result: active

Ask: Tell me the recorded outcome of this test for OCCc1ccc(O)c(O[C@H]2O[C@@H](CO)[C@@H](O)[C@@H](O)[C@@H]2O)c1 .
Result: inactive

Ask: Tell me the recorded outcome of this test for C[C@@H]1CN([C@@H](C)CO)C(=O)c2cc(NC(=O)Nc3ccccc3)ccc2O[C@H]1CN(C)Cc1ccc(C(F)(F)F)cc1 .
Result: inactive

Ask: Tell me the recorded outcome of this test for C[C@H](CO)N1C[C@H](C)[C@@H](CN(C)Cc2ccc(-c3ccccc3)cc2)Oc2ccc(NS(=O)(=O)c3ccc(Cl)cc3)cc2C1=O .
Result: active

Ask: Tell me the recorded outcome of this test for C=CC1=C(C)c2cc3[nH]c(cc4nc(cc5[nH]c(cc1n2)c(C)c5CCC(=O)O)C(CCC(=O)O)=C4C)c(C)c3C=C .
Result: active

Ask: Tell me the recorded outcome of this test for OCc1cc(O)c2c(O)c3c(O)cccc3c(O[C@@H]3O[C@H](CO)[C@H](O)[C@@H](O)[C@H]3O)c2c1 .
Result: inactive

Ask: Tell me the recorded outcome of this test for O=C(O)c1cc(O)c2c(O)c3c(O[C@H]4O[C@H](CO)[C@@H](O)[C@H](O)[C@H]4O)cccc3c(-c3c4cc(C(=O)O)cc(O)c4c(O)c4c(O[C@H]5O[C@H](CO)[C@@H](O)[C@H](O)[C@H]5O)cccc34)c2c1 .
Result: active

----------
Tested on: HepG2
assayNotes: cytotoxicity call (relative viability < 0.9)
experimentalConditions: 10 µM
The campaign covered roughly 39,000 compounds. About 3,300 (8.5%) were called active. This excerpt belongs to a sample that is enriched for actives.
attributeMeasured: cytotoxicity call

>>> valueobserved("C[C@H]1CN([C@@H](C)CO)C(=O)Cc2cc(NC(=O)Nc3ccc(C(F)(F)F)cc3)ccc2O[C@@H]1CN(C)Cc1ccc(Oc2ccccc2)cc1")
"inactive"
>>> valueobserved("C[C@@H]1CN([C@@H](C)CO)C(=O)Cc2cc(NC(=O)Nc3ccc(C(F)(F)F)cc3)ccc2O[C@H]1CN(C)Cc1ccc(Oc2ccccc2)cc1")
"inactive"
>>> valueobserved("C[C@H]1CCCCO[C@H](CN(C)C(=O)c2ccncc2)[C@@H](C)CN([C@@H](C)CO)C(=O)c2cc(NS(=O)(=O)c3ccc(Cl)cc3)ccc2O1")
"inactive"
